# ASSAY: Tmax in diabetic tuberculosis patient at 10 mg/kg, po and 10 mg/kg, iv by HPLC analysis
# Format: ADME, organism-based
# CONDITIONS USED: human, in vivo
METRIC NAME: Tmax
Reply with the number, then its unit.

q: Quick check: Tmax of `CO[C@H]1/C=C/O[C@@]2(C)Oc3c(C)c(O)c4c(O)c(c(/C=N/N5CCN(C)CC5)c(O)c4c3C2=O)NC(=O)/C(C)=C\C=C\[C@H](C)[C@H](O)[C@@H](C)[C@@H](O)[C@@H](C)[C@H](O)[C@@H]1C` ?
a: 3 h

q: How about this molecule: CO[C@H]1/C=C/O[C@@]2(C)Oc3c(C)c(O)c4c(O)c(c(/C=N/N5CCN(C)CC5)c(O)c4c3C2=O)NC(=O)/C(C)=C\C=C\[C@H](C)[C@H](O)[C@@H](C)[C@@H](O)[C@@H](C)[C@H](OC(C)=O)[C@@H]1C [RIFAMPIN]
a: 2 h
